System: RXF 393
Method description: NCI tumour cell line growth inhibition, 48 h
Activity calls are given as the source filed them. Rule as the data show it: active = GI50 up to about 1.1 µM and inactive = higher.
Below is a list of entries, each paired with its recorded GI50 value.

Previously resolved entries follow.
CC(C)(C)N/N=C(\C(=O)Nc1ccc([N+](=O)[O-])cc1[N+](=O)[O-])c1nc2ccc([N+](=O)[O-])cc2nc1O | > 100 µM (inactive)
Cc1ccc(NC(=O)CCc2cc(C(C)(C)C)nc(S)n2)cc1C | > 100 µM (inactive)
N#Cc1c(N)nc(Nc2cccc3ccccc23)c(C#N)c1C#N | > 10 µM (inactive)
COC1[C@H](NC(=O)OC(C)(C)C)C(=O)N1Cc1ccccc1 (stereo not given in full) | > 100 µM (inactive)
Cc1cc(OCC(=O)N/N=C/C(Br)=C/c2ccccc2)nc(SCC(=O)N/N=C/C(Br)=C/c2ccccc2)n1 | 49.1 µM (inactive)
COC(=O)CCC(C)[C@H]1CCC2C3CC[C@@H]4CC5(CC[C@]4(C)C3C[C@H](OC(C)=O)[C@@]21C)OOC1(CCCCC1)OO5 (stereo not given in full) | > 100 µM (inactive)
C=CCN1C(=O)C(=O)N(CC=C)C(=O)C1=O | > 100 µM (inactive)
N#CC(C#N)=C/C=C/c1c(Cl)cccc1Cl | 1.58 µM (inactive)

Per the record, C[N+]1(CCN=C=NC2CCCCC2)CCOCC1 has GI50 of > 100 µM (inactive)

Query CSC1=C(C#N)C(=O)N(c2ccc(Cl)cc2)C(=O)C1C#N (stereo not given) yields GI50 of > 100 µM (inactive)

====

Below: a set of entries, each annotated with reported GI50.
System: K562
Method description: NCI tumour cell line growth inhibition, 48 h
Active and inactive are the calls of the source. Cut-off read from the data, not from the text of the source: active = GI50 up to about 1.1 µM and inactive = higher.

Recorded results for 4 compounds are shown here.
O=C1C=C2CCCC2C(C(=O)O)(C(=O)O)C1 (centres undefined) | > 100 µM (inactive)
C/C=C/C(C#N)(Cc1ccccc1)OP1(=O)OC(c2ccccc2)C(C)N1C (centres undefined) | 38.5 µM (inactive)
CC(C)CC(=O)NC(C(=O)NC(C(=O)NC(CC(C)C)C(O)CC(=O)NC(C)C(=O)NC(CC(C)C)C(O)CC(=O)O)C(C)C)C(C)C (centres undefined) | > 100 µM (inactive)
CC(NC(=O)/C(=C/c1ccccc1)NC(=O)c1ccccc1)C(=O)O (centres undefined) | > 100 µM (inactive)

Given item COc1cc2ncnc(Nc3cccc(Cl)c3)c2cc1OC , the value recorded as its GI50 is 8.71 µM (inactive)

GI50 reported for this compound CCOC(=O)CCC(NC(=O)OCc1ccccc1)C(=O)NC(CCC(=O)OCC)C(=O)NC(CCC(=O)OCC)C(=O)NNC(=O)OC(C)(C)C (centres undefined) : > 100 µM (inactive)

Record summary for O=C(/C(=C\C(=O)c1cccs1)c1ccsc1)c1ccc(Br)cc1 : reported GI50 = > 100 µM (inactive)

Reported GI50 of COc1ccc(/C=C2\C(=O)N(C3OC(COC(C)=O)C(OC(C)=O)C(OC(C)=O)C3OC(C)=O)c3ccccc3N=C2N)cc1 (centres undefined) : 11.9 µM (inactive)

====

Listed here: compounds with reported GI50 for HCT-15.

Reference set, count: 6
O=c1[nH]c2nc3ccccc3c(=O)n2/c1=C/c1ccccc1 | 29.8 µM
Cc1cc(C)nc(NS(=O)(=O)c2ccc(Nc3c4ccccc4nc4c(C(=O)NNCCO)cccc34)cc2)n1 | > 100 µM
COc1cc(NC(C)CCCN)c2nccc(C)c2c1 (stereo unspecified) | 21.3 µM
CCCn1c(SC)nc(COC(=O)NC)c1COC(=O)NC | > 100 µM
O=C(O)C(O)C(O)C(O)C(=O)CO (stereo unspecified) | > 100 µM
CC(Nc1ccc(Cl)cc1)c1ccncc1 (stereo unspecified) | > 100 µM

Now look at this one.
// assay HCT-15, entry O=C1Cc2c(-c3ccccc3)cc(-c3ccc4ccccc4c3)nc2-c2ccccc2N1 , GI50 value = 37.8 µM

====

Tested on: CCRF-CEM
Method description: NCI tumour cell line growth inhibition, 48 h
The source made the active and inactive calls. Cut-off read from the data, not from the text of the source: active = GI50 up to about 1.1 µM and inactive = higher.
Use one of these outcomes when replying: active, inactive

Cc1ccn2c(=O)cc(-c3ccccc3)nc2c1 | inactive
CCCCCCCCCCCCCCCCCCOC(COP(=O)(O)OCC1OC(n2cc(F)c(=O)[nH]c2=O)CC1O)COP(=O)(O)OCC1OC(n2ccc(N)nc2=O)C(O)C1O (stereo not given) | inactive
C/C=C/C(C#N)(Cc1ccccc1)OP1(=O)OC(c2ccccc2)C(C)N1C (stereo not given) | inactive
O=[N+]([O-])/C(C(Cl)=C(Cl)Cl)=C1\NCCS1 | inactive

Request: What classification did CCOC(=O)N(c1ccccc1)c1cc(=O)n2ccccc2n1 end up with in this test?
Response: inactive

Request: Given COc1cc2[nH]c(=O)c3cc(C)cc4c(Cl)nc(c1OC)c2c43 , state the outcome it received in this test.
Response: inactive

Request: # lookup: test call for CCCn1c(SC)nc(COC(=O)NC)c1COC(=O)NC
Response: inactive

Request: What did this assay record as the result for COC1=Nc2ccccc2S(=O)(=O)C=C1 ?
Response: active

Request: Identify the outcome logged in this assay for the molecule shown: COc1ccc(N2C(=O)C3c4[nH]c5ccc(C)cc5c4C4CCC(C(C)C)CC4C3C2=O)cc1 (stereo not given)
Response: active

Request: Record lookup: outcome of this test for CC(C(N)=O)N(C)C(=O)c1cnc2ccccc2c1 (stereo not given) ?
Response: inactive

====

Tested on: SF-268
Method description: NCI tumour cell line growth inhibition, 48 h
Active and inactive are the calls of the source. No stated cut-off is given here; in the data, active = GI50 up to about 1.1 µM and inactive = higher.
Measurement name: GI50

A selection of reference data follows.
COc1ccc(OC)c(-c2nc(O)c3ccccc3n2)c1 | > 100 µM (inactive)
OCCCSCCO | > 100 µM (inactive)
COc1ccc2c(c1)Cc1c-2[nH]c2cc3c(cc2c1=O)OCO3 | 18.7 µM (inactive)

GI50 on SF-268 for O=C1Nc2ccccc2[C@]12C[C@H]2c1ccccn1 is > 100 µM (inactive)

Assay SF-268, sample O=C(O)c1cc2c(cc1S(=O)(=O)O)C1C(C3C2C2(Cl)C(Cl)=C(Cl)C3(Cl)C2(Cl)Cl)C2(Cl)C(Cl)=C(Cl)C1(Cl)C2(Cl)Cl (stereo unspecified) , GI50 read: 58.7 µM (inactive)

Test item CCSC1=N/C(=C\c2ccc(N(C)C)cc2)C(Cl)=N1 ; SF-268; reported GI50 was > 100 µM (inactive)

====

Tested on: UACC-257
Method description: NCI tumour cell line growth inhibition, 48 h
The source made the active and inactive calls. No stated cut-off is given here; in the data, active = GI50 up to about 1.1 µM and inactive = higher.
Measurement name: GI50

C=CCCCCCCCCCOC1C=CC(OC(C)=O)C(COC(C)=O)O1 (stereo unspecified) | 29 µM (inactive)

Consider the record given below.
Reported UACC-257 GI50 for item CCCCNC(=S)Nc1nc(C(=O)NNC(=S)NC2CCCCC2)cs1 was > 100 µM (inactive)

====

System: UACC-62
Method description: NCI tumour cell line growth inhibition, 48 h
Active and inactive are the calls of the source. Cut-off read from the data, not from the text of the source: active = GI50 up to about 1.1 µM and inactive = higher.
Measurement name: GI50

COc1cc(C(C)c2cc3c(cc2OCCN)OCO3)cc(OC)c1OC (stereo unspecified) | 35.5 µM (inactive)

Okay, now this compound:
Sample CSC(C1c2ccccc2N(c2ccc(C)cc2)c2[nH]c(=O)n(C)c(=O)c21)S(=O)(=O)c1ccc(C)cc1 (stereo unspecified) ; GI50 observed: > 100 µM (inactive)

====

Listed compounds paired with reported GI50
Tested on: U-251
Method description: NCI tumour cell line growth inhibition, 48 h
Calls of active or inactive are those of the source. Rule as the data show it: active = GI50 up to about 1.1 µM and inactive = higher.

Consider the worked cases shown below.
COc1cc(NC(C)CCCN)c2nccc(C)c2c1 (stereo not given) | 19.6 µM (inactive)
O=C(Nc1ccccc1)N(CCN(Cc1ccccc1)C(=O)Nc1ccccc1)CCN(Nc1ccccc1)C(=O)Nc1ccccc1 | > 100 µM (inactive)
CC(=O)/C(=C\Nc1c(C)n(C)n(C)c1=O)C(=O)c1ccccc1 | > 50 µM (inactive)

The compound listed as O=c1[nH]c(-n2[nH]c3c(c2=O)CCCC3)nc(O)c1-c1ccccc1 has a reported GI50 of > 100 µM (inactive)

Reported GI50 for O=C1C=C2CCCC2C(C(=O)O)(C(=O)O)C1 (stereo not given) was > 100 µM (inactive)

Item: O=c1oc2ccccc2n1CCCn1c(=O)oc2ccccc21 | GI50: 47.9 µM (inactive)

Measured GI50 of CC1=NN(c2nc(N)nc(/C(C#N)=C\c3csc([N+](=O)[O-])c3)n2)C(C)(C)C1 : 19.3 µM (inactive)

Reported GI50 ( CC(=O)Nc1ccc(C(=O)NN2C(=O)C(Cl)C2c2ccccc2)cc1 (stereo not given) ) = > 100 µM (inactive)

Briefly, GI50 measured for COC(=O)C(Cc1ccccc1)NC(=O)CSc1nnc(COc2ccc(Cl)cc2)n1-c1ccccc1 (stereo not given) : 18.5 µM (inactive)

Origin of the recorded values: ChEMBL document CHEMBL1201862
